Test system: butyrylcholinesterase (BChE)
Assay: BChE inhibition, Ellman's method
Type: biochemical
Conditions: 20 µg/mL
Structures can show the parent of a compound that is named as a salt.
quantity_name: Percentile of inhibition ± S.E.M against BChE (%)

[
  {
    "compound": "CC1(C)O[C@H]1COc1c2ccoc2cc2oc(=O)ccc12 [Oxypeucedanin]",
    "recorded_result": 36.89
  },
  {
    "compound": "COc1c2ccoc2cc2oc(=O)ccc12 [Bergapten]",
    "recorded_result": 31.00
  },
  {
    "compound": "CC[C@H](CC[C@@H](C)[C@H]1CC[C@H]2[C@@H]3CC=C4C[C@@H](O)CC[C@]4(C)[C@H]3CC[C@]12C)C(C)C [β-Sitosterol]",
    "recorded_result": 9.93
  },
  {
    "compound": "COc1cc2c(cc1OC)C(=O)C(CC1CCN(Cc3ccccc3)CC1)C2 (centres unmarked) [Donepezil, donepezil hydrochloride, reference compound]",
    "recorded_result": 90.33
  },
  {
    "compound": "CC[C@H](/C=C/[C@@H](C)[C@H]1CC[C@H]2[C@@H]3CC=C4C[C@@H](O)CC[C@]4(C)[C@H]3CC[C@]12C)C(C)C [Stigmasterol]",
    "recorded_result": 13.34
  }
]
